Could you please report measured switch fluorescence ratio for the items listed next?
tested on: ATP; test: switch fluorescence ratio, 500 uM ATP over buffer (Cy3 cluster intensity, sum of 5 cycles each) (fold (ratio)); higher = stronger signal-on switching upon ATP binding; sequences stand for … in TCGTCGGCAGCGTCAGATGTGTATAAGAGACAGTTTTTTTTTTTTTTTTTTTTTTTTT…TC; details: aptamer strand: ATP DNA aptamer (quencher-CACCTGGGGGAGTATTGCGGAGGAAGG + anchor), 100 nM annealed; ATP concentration: 500 uM;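 note: ATP exposure 15 min at 22 °C before imaging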
# output: bare number, no unit

// recorded switch fluorescence ratio for GCACATTGCT : 1.02

// recorded switch fluorescence ratio for ATACGAGGTG : 1.07

// recorded switch fluorescence ratio for CGTGTAATTT : 0.993

// recorded switch fluorescence ratio for TGTATTGCGG : 1.02

// recorded switch fluorescence ratio for AAAATTCTGC : 1.06

// recorded switch fluorescence ratio for GACAGCTTGG : 1.01

// recorded switch fluorescence ratio for CGAGTTGCTG : 0.988

// recorded switch fluorescence ratio for ATGGCAACCG : 1.02

// recorded switch fluorescence ratio for CGGATGCGTT : 0.981

// recorded switch fluorescence ratio for GGGGGTGCGA : 1.01

// recorded switch fluorescence ratio for TTGAGGGTGC : 1.01

// recorded switch fluorescence ratio for TTTGATTGAA : 0.975

// recorded switch fluorescence ratio for AAAACGGCTC : 1.01

// recorded switch fluorescence ratio for CTTGCGTCAC : 1.18

// recorded switch fluorescence ratio for CAGTGTTA : 0.985

// recorded switch fluorescence ratio for TATGTTGGAT : 0.988

// recorded switch fluorescence ratio for GGAATTGATG : 1.04

// recorded switch fluorescence ratio for TCCTCAAATG : 1.61

// recorded switch fluorescence ratio for TATCTTTTCT : 0.968

// recorded switch fluorescence ratio for TTTTAGCCAG : 1.01

// recorded switch fluorescence ratio for TTGTTGCGGG : 0.977

// recorded switch fluorescence ratio for ACGCCGTGTG : 0.999

// recorded switch fluorescence ratio for AAAATATGCT : 1

// recorded switch fluorescence ratio for CATTGTATCG : 1.01

// recorded switch fluorescence ratio for ATCTGGAATA : 1.24

// recorded switch fluorescence ratio for GGGGGGACAG : 1

// recorded switch fluorescence ratio for ACTACTGGGA : 0.976

// recorded switch fluorescence ratio for TTATGGGCAA : 1.1

// recorded switch fluorescence ratio for CGCTTATGCA : 1.02

// recorded switch fluorescence ratio for AGGGGTATCT : 0.974

// recorded switch fluorescence ratio for TGTGTGGCGT : 1

// recorded switch fluorescence ratio for TGGGAAAAAA : 0.985

// recorded switch fluorescence ratio for GTAGTATCAG : 1

// recorded switch fluorescence ratio for CGGCTTGTTG : 1.01

// recorded switch fluorescence ratio for TATCGGTCCG : 1.01

// recorded switch fluorescence ratio for CATTTTGCGT : 0.972

// recorded switch fluorescence ratio for CTAACCAGCC : 1.6

// recorded switch fluorescence ratio for CGGGGACGGC : 0.98

// recorded switch fluorescence ratio for TTATAATGGG : 0.988

// recorded switch fluorescence ratio for AGTAAGGGCG : 0.992

// recorded switch fluorescence ratio for TTTTCAGCAA : 2.59

// recorded switch fluorescence ratio for AAGGAGAAGA : 0.993

// recorded switch fluorescence ratio for AAGGACACGG : 1.04

----------
system: ATP; assay: switch fluorescence ratio, 500 uM ATP over buffer (Cy3 cluster intensity, sum of 5 cycles each) (fold (ratio)); higher = stronger signal-on switching upon ATP binding; sequences stand for … in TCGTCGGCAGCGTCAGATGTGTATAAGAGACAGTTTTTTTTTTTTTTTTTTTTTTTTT…TC; conditions: aptamer strand: ATP DNA aptamer (quencher-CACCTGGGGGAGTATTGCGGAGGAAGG + anchor), 100 nM annealed; ATP concentration: 500 uM;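 note: ATP exposure 15 min at 22 °C before imaging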
# if value of switch fluorescence ratio reaches 1, tag 1; if it stays below, tag -1

Could you verify whether the entry GGGTAATTAC shows switch fluorescence ratio of no less than 1?
1

Could you verify whether the entry TCGGTACATA shows switch fluorescence ratio of no less than 1?
1

Could you verify whether the entry TGTGAGTTGC shows switch fluorescence ratio of no less than 1?
-1

Could you verify whether the entry GGTAGTGCGT shows switch fluorescence ratio of no less than 1?
-1

Could you verify whether the entry GGCTAACGAC shows switch fluorescence ratio of no less than 1?
1

Could you verify whether the entry TTAAGGGGTT shows switch fluorescence ratio of no less than 1?
1

Could you verify whether the entry CAGTTCATCG shows switch fluorescence ratio of no less than 1?
1

Could you verify whether the entry GTACTATTTT shows switch fluorescence ratio of no less than 1?
1

Could you verify whether the entry TGGGAATGGC shows switch fluorescence ratio of no less than 1?
-1

Could you verify whether the entry TTGGAGGGCG shows switch fluorescence ratio of no less than 1?
1

Could you verify whether the entry ATTTGTGCAG shows switch fluorescence ratio of no less than 1?
-1

Could you verify whether the entry AGGGCAAGCG shows switch fluorescence ratio of no less than 1?
-1

Could you verify whether the entry CAATAGGGCA shows switch fluorescence ratio of no less than 1?
-1

Could you verify whether the entry TTTGTTAGC shows switch fluorescence ratio of no less than 1?
1

----------
test system: ATP; test: switch fluorescence ratio, 500 uM ATP over buffer (Cy3 cluster intensity, sum of 5 cycles each) (fold (ratio)); higher = stronger signal-on switching upon ATP binding; sequences stand for … in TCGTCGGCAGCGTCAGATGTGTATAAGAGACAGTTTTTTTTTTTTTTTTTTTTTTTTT…TC; conditions: aptamer strand: ATP DNA aptamer (quencher-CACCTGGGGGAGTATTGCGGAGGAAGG + anchor), 100 nM annealed; ATP concentration: 500 uM;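 note: ATP exposure 15 min at 22 °C before imaging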
Could you please report measured switch fluorescence ratio for the items listed next?
# output: bare number, no unit

// recorded switch fluorescence ratio for TTTTGGTCAT : 0.962

// recorded switch fluorescence ratio for TAATGTATTA : 1.01

// recorded switch fluorescence ratio for TATAGAGTAA : 1.02

// recorded switch fluorescence ratio for GGGAAGACTT : 1.02

// recorded switch fluorescence ratio for TTGAGGTAGT : 0.984

// recorded switch fluorescence ratio for TCGGGAACGC : 1.04

// recorded switch fluorescence ratio for TTTTAATACC : 1

// recorded switch fluorescence ratio for GGTGTTGGTA : 0.974

// recorded switch fluorescence ratio for GGGCACGTTT : 0.995

// recorded switch fluorescence ratio for TTGGAGGGTT : 0.992

// recorded switch fluorescence ratio for TTTGCAGACA : 1.01

// recorded switch fluorescence ratio for GGTAAGGGGG : 0.99

// recorded switch fluorescence ratio for GACTGGTAAT : 1.05

// recorded switch fluorescence ratio for CGATTCGAGG : 1.03

// recorded switch fluorescence ratio for TTGTCGTGCC : 1.03

// recorded switch fluorescence ratio for TTTTTAAAAT : 1.08

// recorded switch fluorescence ratio for TAACGGACTA : 1.29

// recorded switch fluorescence ratio for TTGCGGGATG : 1.04

// recorded switch fluorescence ratio for CTCAGCGGGT : 1.49

// recorded switch fluorescence ratio for GGGCTAGAGG : 0.974

----------
test system: ATP; test: switch fluorescence ratio, 500 uM ATP over buffer (Cy3 cluster intensity, sum of 5 cycles each) (fold (ratio)); higher = stronger signal-on switching upon ATP binding; sequences stand for … in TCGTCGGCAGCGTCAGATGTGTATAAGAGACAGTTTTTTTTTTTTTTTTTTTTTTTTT…TC; details: aptamer strand: ATP DNA aptamer (quencher-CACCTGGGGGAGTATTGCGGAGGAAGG + anchor), 100 nM annealed; ATP concentration: 500 uM;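 note: ATP exposure 15 min at 22 °C before imaging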
measured attribute: switch fluorescence ratio
# output: bare number, no unit

// recorded switch fluorescence ratio for ACCTGTTGTT : 0.991

// recorded switch fluorescence ratio for GTCGTAAGAG : 0.98

// recorded switch fluorescence ratio for ATAATAGAGC : 1

// recorded switch fluorescence ratio for AGTGCAAGAT : 1.08

// recorded switch fluorescence ratio for GCTTATTCAG : 0.976

// recorded switch fluorescence ratio for TCCATTAGGA : 0.998

// recorded switch fluorescence ratio for ATGTGGACCT : 1.26

// recorded switch fluorescence ratio for TTAGAAAGTT : 1.03

// recorded switch fluorescence ratio for GCAATCGGGA : 1.2

// recorded switch fluorescence ratio for TATGTACTAG : 1.05

// recorded switch fluorescence ratio for GCGGGGGGTT : 1.01

// recorded switch fluorescence ratio for TCGTCGCTTT : 1.04

// recorded switch fluorescence ratio for ATTATGTCGT : 1

// recorded switch fluorescence ratio for TGAGTGAGTG : 0.993

// recorded switch fluorescence ratio for GGTACTATT : 0.991

// recorded switch fluorescence ratio for CTAGGGGGGC : 1

// recorded switch fluorescence ratio for ATATTGATTC : 1.01

// recorded switch fluorescence ratio for GGGGCCACGC : 1.01

// recorded switch fluorescence ratio for ATAGGGGCAG : 0.996

// recorded switch fluorescence ratio for AGGGTTATCG : 1.02

// recorded switch fluorescence ratio for GCAGCTGGCA : 0.984

// recorded switch fluorescence ratio for TCTGCATGTT : 1.02

// recorded switch fluorescence ratio for TTGGGCGGGA : 0.968

// recorded switch fluorescence ratio for GAGAACAGTG : 1.02

// recorded switch fluorescence ratio for TAGGGAAAAG : 0.99

// recorded switch fluorescence ratio for TTACCGACGG : 1.1

// recorded switch fluorescence ratio for CTTCGTATGG : 1

// recorded switch fluorescence ratio for AATTGCCTGT : 0.933

// recorded switch fluorescence ratio for AGGTTGTAGC : 0.998

// recorded switch fluorescence ratio for AGGGATACCG : 1.01

// recorded switch fluorescence ratio for TCAGTACATG : 0.992

// recorded switch fluorescence ratio for GAGGGACTGT : 0.972

// recorded switch fluorescence ratio for GGGAGAGTTG : 0.993

// recorded switch fluorescence ratio for ATGATGCAGA : 1

// recorded switch fluorescence ratio for TGCTATTTAC : 1.1

// recorded switch fluorescence ratio for TGCAAGCGAC : 2.61

// recorded switch fluorescence ratio for TAGGGGGATG : 0.997

// recorded switch fluorescence ratio for GGGTGGGTTA : 1.01

// recorded switch fluorescence ratio for GCGATAATTT : 0.998

// recorded switch fluorescence ratio for AAAGTGGGG : 0.973

// recorded switch fluorescence ratio for GGGGATTATT : 0.991

// recorded switch fluorescence ratio for ACCTTTACGT : 1.17

// recorded switch fluorescence ratio for CGTATGCCGG : 1
